Quick reference for melting point among some molecules

As a guide, the following entries are already answered.
INSERT INTO assay_data (smiles_representation, value_measured) VALUES
  ('O=C(NCc1ccccc1Cl)Nc1cccc2[nH]ccc12', '237 to 238 °C'),
  ('O=C(Nc1cccc(-c2ccccc2)c1)Nc1cccc2[nH]ccc12', '213 to 215 °C'),
  ('O=C(Nc1ccc(F)cc1)Nc1ccc2[nH]c(C(F)(F)F)nc2c1', '242 to 243 °C'),
  ('Cc1nc2cc(NC(=O)Nc3ccc(Oc4ccccc4)cc3)ccc2s1', '228 to 229 °C'),
  ('O=C(Nc1ccc(F)cc1)Nc1ccc2[nH]ccc2c1', '243 to 245 °C');

Attention now shifts to the item below.
For this molecule ( "O=C(Nc1ccc(C(F)(F)F)cc1)Nc1cccc2[nH]ccc12" ), measured melting point is 242 to 243 °C
